Test system: Heme
test_name: Binding affinity to heme assessed as binding constant for stepwise binding of 2 equivalent of drug to 1 molecule of heme in presence of 40% DMSO by UV-visible spectroscopy
measurement_name: log Ks
Format: numeric value only, no unit, no commentary.

As a guide, the following entries are already answered.
molecule=c1ccncc1 result_number=2.5
molecule=C=C[C@H]1CN2CC[C@H]1C[C@H]2[C@H](O)c1ccnc2ccc(OC)cc12 result_number=4.4
molecule="OC(c1cc(C(F)(F)F)nc2c(C(F)(F)F)cccc12)C1CCCCN1 (stereo not given)" result_number=3.84

IN: Please look at this molecule and report its log Ks: CC(C)(C)NCc1cc(Nc2ccnc3cc(Cl)ccc23)ccc1F
OUT: 5.45

IN: Please look at this molecule and report its log Ks: CCN(CC)Cc1cc(Nc2ccnc3cc(Cl)ccc23)ccc1O.Cl
OUT: 4.4

====

logP reference
test_name: Partition coefficient, log P of the compound
Type: physicochemical
condition_info: octanol/water

smiles_notation=CC(C)(C)NCc1cc(Nc2ccnc3cc(Cl)ccc23)ccc1Cl measurement_name=logP result=5.59

Alright, here's another compound for you.
IN: Please look at this compound and report its logP: CC(C)(C)NCc1cc(Nc2ccnc3cc(Cl)ccc23)ccc1F
OUT: 5.15

====

test_name: Biodistribution in cannulated Wistar rat bile assessed as [3H]labeled drug level at 54 umol/kg, iv after 5 hrs
Assay type: ADME, organism-based
condition_info: in vivo
measurement_name: Activity (%ID)
Only the number, expressed in %ID, is required.

IN: Please look at this molecule and report its Activity: CC(C)(C)NCc1cc(Nc2ccnc3cc(Cl)ccc23)ccc1F
OUT: 9.16

====

test_name: Clearance in iv dosed mouse
Type: ADME, organism-based
condition_info: in vivo
clearance reference
Only the number, expressed in mL/min/kg, is required.

As a guide, the following entries are already answered.
smiles_notation=CCN(CC)Cc1ccc(Nc2ccnc3cc(Cl)ccc23)cc1O result_number=219
smiles_notation=CCNCc1ccc(Nc2ccnc3cc(Cl)ccc23)cc1O result_number=43.5

Alright, here's another compound for you.
IN: Please look at this compound and report its clearance: CC(C)(C)NCc1cc(Nc2ccnc3cc(Cl)ccc23)ccc1F
OUT: 40.4

====

Test system: Plasmodium falciparum
test_name: Antimalarial activity against chloroquine-resistant Plasmodium falciparum V1/S
Format: functional, organism-based
condition_info: V1S
measurement_name: pIC50
Scale explanation: pIC50 corresponds to minus log10 of a concentration expressed in moles per litre.

As a guide, the following entries are already answered.
smiles_notation=Fc1ccc(Nc2ccnc3cc(Cl)ccc23)cc1CN1CCCC1 measurement_name=pIC50 result_number=7.28
smiles_notation=CCN(CC)Cc1cc(Nc2ccnc3cc(Cl)ccc23)ccc1O.Cl measurement_name=pIC50 result_number=8.05

Alright, here's another molecule for you.
IN: Please look at this molecule and report its pIC50: CC(C)(C)NCc1cc(Nc2ccnc3cc(Cl)ccc23)ccc1F
OUT: 7.58

====

System: Plasmodium falciparum
test_name: Antimalarial activity against chloroquine-resistant Plasmodium falciparum K1
measurement_name: IC50 (nM)
Only the number, expressed in nM, is required.

smiles_notation=CC(C)(C)NCc1cc(Nc2ccnc3cc(Cl)ccc23)ccc1F measurement_name=IC50 result_number=22

Alright, here's another compound for you.
IN: Please look at this compound and report its IC50: Fc1ccc(Nc2ccnc3cc(Cl)ccc23)cc1CN1CCCC1
OUT: 45.9
